- TEST DESCRIPTION: Lipophilicity, log K by HPLC method
- Format: physicochemical
METRIC: log K

- COMPOUND: "CC(C(=O)O)c1ccc(OCCCCOc2ccc(CC(=O)N(C)CCc3ccccc3)cc2)cc1 (configuration not stated)"
  log K: 0.458
- COMPOUND: "CC(Cc1ccc(OCCCOc2ccc(CC(=O)N(C)CCc3ccccc3)cc2)cc1)C(=O)O (configuration not stated)"
  log K: 0.502
- COMPOUND: "CC(C(=O)O)c1cccc2ccc(OCCCOc3ccc(CC(=O)NCCc4ccccc4)cc3)cc12 (configuration not stated)"
  log K: 0.617

(a) CC(CCc1ccc(OCCCCOc2ccc(CC(=O)N(C)CCc3ccccc3)cc2)cc1)C(=O)O (configuration not stated)
(b) CN(CCc1ccccc1)C(=O)Cc1ccc(OCCOc2ccc(C(=O)CCC(=O)O)cc2)cc1
(c) COc1cc(/C=C/C(=O)O)ccc1OCCCOc1ccc(CC(=O)N(C)CCc2ccccc2)cc1
(d) CN(CCc1ccccc1)C(=O)Cc1ccc(OCCCCOc2ccc(CCC(=O)O)cc2)cc1
Q: Rank by log K (largest to smallest). Response field: labels, in requested order.
Ans: a, d, c, b

====

- System: Rattus norvegicus
- TEST DESCRIPTION: Antiinflammatory activity in rat assessed as inhibition of carrageenan-induced edema at 100 mg/kg relative to untreated control
- Assay type: functional
METRIC: inhibition in vivo at 100 mg/kg (%)
Numeric answer only, unit % assumed.

Some compounds with recorded inhibition in vivo at 100 mg/kg:
- COMPOUND: "CN(CCc1ccccc1)C(=O)Cc1ccc(OCCCOc2ccc(/C=C/C(=O)O)cc2)cc1"
  inhibition in vivo at 100 mg/kg [%]: 13
- COMPOUND: "CC(CCc1ccc(OCCCCOc2ccc(CC(=O)N(C)CCc3ccccc3)cc2)cc1)C(=O)O (stereo not drawn)"
  inhibition in vivo at 100 mg/kg [%]: 56

Now consider the entry below.
Q: Item COc1cc(CCC(=O)O)ccc1OCCCOc1ccc(CC(=O)N(C)CCc2ccccc2)cc1 has what recorded inhibition in vivo at 100 mg/kg?
Ans: 26

====

- TEST DESCRIPTION: Antileukotrienic activity in rat PMNC assessed as inhibition of Ca2+ ionophore A23187-induced LTB4 production by RIA
- Format: functional
pIC50: −log10 of the molar value.
METRIC: pIC50

- MOLECULE: "CN(CCc1ccccc1)C(=O)Cc1ccc(OCCOc2ccc(CCCC(=O)O)cc2)cc1"
  OBSERVED RESULT: 5.02
- MOLECULE: "CC(C(=O)O)c1ccc(OCCCOc2ccc(CC(=O)N(C)CCc3ccccc3)cc2)c(Cl)c1 (centres undefined)"
  OBSERVED RESULT: 5.04
- MOLECULE: "CC(CCc1ccc(OCCCCOc2ccc(CC(=O)N(C)CCc3ccccc3)cc2)cc1)C(=O)O (centres undefined)"
  OBSERVED RESULT: 5.00

(A) CN(CCc1ccccc1)C(=O)Cc1ccc(OCCCOc2ccc(/C=C/C(=O)O)cc2)cc1
(B) CN(CCc1ccccc1)C(=O)Cc1ccc(OCCOc2ccc(C(=O)CCC(=O)O)cc2)cc1
Q: Compare the recorded pIC50 of A and B ; state which is larger. Mark your answer with the label of the selected entry.
Ans: A

(a) COc1cc(/C=C/C(=O)O)ccc1OCCCCOc1ccc(CC(=O)N(C)CCc2ccccc2)cc1
(b) CC(C(=O)O)c1cccc2ccc(OCCCCOc3ccc(CC(=O)NCCc4ccccc4)cc3)cc12 (centres undefined)
Q: Compare the recorded pIC50 of a and b ; state which is larger. Mark your answer with the label of the selected entry.
Ans: b

(a) CC(Cc1ccc(OCCCCOc2ccc(CC(=O)N(C)CCc3ccccc3)cc2)cc1)C(=O)O (centres undefined)
(b) CC(C(=O)O)c1ccc(OCCCCOc2ccc(CC(=O)N(C)CCc3ccccc3)cc2)c(Cl)c1 (centres undefined)
Q: Lower value of pIC50 belongs to which: a or b ? Mark your answer with the label of the selected entry.
Ans: a
(a: 5.00, b: 5.25)

(P) CN(CCc1ccccc1)C(=O)Cc1ccc(OCCCCOc2ccc(/C=C/C(=O)O)cc2)cc1
(Q) CC(C(=O)O)c1ccc(OCCCCOc2ccc(CC(=O)N(C)CCc3ccccc3)cc2)cc1 (centres undefined)
Q: Lower value of pIC50 belongs to which: P or Q ? Mark your answer with the label of the selected entry.
Ans: Q
(Q: 4.51, P: 5.06)

(A) COc1cc(CCC(=O)O)ccc1OCCCCOc1ccc(CC(=O)N(C)CCc2ccccc2)cc1
(B) CC(CCc1ccc(OCCOc2ccc(CC(=O)N(C)CCc3ccccc3)cc2)cc1)C(=O)O (centres undefined)
(C) CN(CCc1ccccc1)C(=O)Cc1ccc(OCCOc2ccc(/C=C/C(=O)O)cc2)cc1
Q: Rank by pIC50 (largest to smallest). Response field: labels, in requested order.
Ans: A, B, C

(A) CC(C(=O)O)c1cccc2ccc(OCCCOc3ccc(CC(=O)NCCc4ccccc4)cc3)cc12 (centres undefined)
(B) CN(CCc1ccccc1)C(=O)Cc1ccc(OCCCCOc2ccc(CCCC(=O)O)cc2)cc1
Q: Compare the recorded pIC50 of A and B ; state which is larger. Mark your answer with the label of the selected entry.
Ans: A

(1) CC(CCc1ccc(OCCCOc2ccc(CC(=O)N(C)CCc3ccccc3)cc2)cc1)C(=O)O (centres undefined)
(2) CN(CCc1ccccc1)C(=O)Cc1ccc(OCCCOc2ccc(CCCC(=O)O)cc2)cc1
Q: Compare the recorded pIC50 of 1 and 2 ; state which is larger. Mark your answer with the label of the selected entry.
Ans: 1
(1: 5.12, 2: 4.92)

====

- TEST DESCRIPTION: Lipophilicity, log K by HPLC method
- Type: physicochemical
METRIC: log K

Some compounds with recorded log K:
- COMPOUND: "CC(C(=O)O)c1ccc(OCCCCOc2ccc(CC(=O)N(C)CCc3ccccc3)cc2)c(Cl)c1 (centres undefined)"
  OBSERVED RESULT: 0.554
- COMPOUND: "CN(CCc1ccccc1)C(=O)Cc1ccc(OCCOc2ccc(CCCC(=O)O)cc2)cc1"
  OBSERVED RESULT: 0.231
- COMPOUND: "CC(Cc1ccc(OCCCCOc2ccc(CC(=O)N(C)CCc3ccccc3)cc2)cc1)C(=O)O (centres undefined)"
  OBSERVED RESULT: 0.604
- COMPOUND: "COc1cc(/C=C/C(=O)O)ccc1OCCOc1ccc(CC(=O)N(C)CCc2ccccc2)cc1"
  OBSERVED RESULT: -0.061
- COMPOUND: "CN(CCc1ccccc1)C(=O)Cc1ccc(OCCCOc2ccc(/C=C/C(=O)O)cc2)cc1"
  OBSERVED RESULT: 0.336
- COMPOUND: "CN(CCc1ccccc1)C(=O)Cc1ccc(OCCCCOc2ccc(CCCC(=O)O)cc2)cc1"
  OBSERVED RESULT: 0.6

(1) CC(C(=O)O)c1ccc(OCCCOc2ccc(CC(=O)N(C)CCc3ccccc3)cc2)c(Cl)c1 (centres undefined)
(2) COc1cc(CCC(=O)O)ccc1OCCCCOc1ccc(CC(=O)N(C)CCc2ccccc2)cc1
(3) COc1cc(CCC(=O)O)ccc1OCCCOc1ccc(CC(=O)N(C)CCc2ccccc2)cc1
Q: Rank by log K (largest to smallest). Response field: labels, in requested order.
Ans: 1, 2, 3
(1: 0.432, 2: 0.267, 3: 0.175)

====

- TEST DESCRIPTION: Lipophilicity, log K by HPLC method
- Format: physicochemical
METRIC: log K

Some molecules with recorded log K:
- MOLECULE: "CC(C(=O)O)c1cccc2ccc(OCCCCOc3ccc(CC(=O)NCCc4ccccc4)cc3)cc12 (centres undefined)"
  log K: 0.755
- MOLECULE: "CN(CCc1ccccc1)C(=O)Cc1ccc(OCCCCOc2ccc(/C=C/C(=O)O)cc2)cc1"
  log K: 0.462
- MOLECULE: "COc1cc(/C=C/C(=O)O)ccc1OCCCCOc1ccc(CC(=O)N(C)CCc2ccccc2)cc1"
  log K: 0.274

(A) CC(CCc1ccc(OCCCOc2ccc(CC(=O)N(C)CCc3ccccc3)cc2)cc1)C(=O)O (centres undefined)
(B) CN(CCc1ccccc1)C(=O)Cc1ccc(OCCCOc2ccc(CCC(=O)O)cc2)cc1
(C) CN(CCc1ccccc1)C(=O)Cc1ccc(OCCOc2ccc(/C=C/C(=O)O)cc2)cc1
Q: List by increasing log K. Response field: labels, in requested order.
Ans: C, B, A

====

- Tested on: Mus musculus
- TEST DESCRIPTION: Antiinflammatory activity against dextrane disodium sulfate-induced ulcerative colitis in BALB/c mouse assessed as diseased animal with large intestine bleeding at 250 mg/kg administered 1 hr before dextrane disodium sulfate challenge
- Format: functional
Listed next: entries and their corresponding Activity.
Numeric answer only, unit % assumed.

- COMPOUND: "CN(CCc1ccccc1)C(=O)Cc1ccc(OCCOc2ccc(C(=O)CCC(=O)O)cc2)cc1"
  SYSTEM UNDER TEST: "Mus musculus"
  UNITS TEXT: "%"
  OBSERVED RESULT: 20
- COMPOUND: "COc1cc(/C=C/C(=O)O)ccc1OCCCCOc1ccc(CC(=O)N(C)CCc2ccccc2)cc1"
  SYSTEM UNDER TEST: "Mus musculus"
  UNITS TEXT: "%"
  OBSERVED RESULT: 100
- COMPOUND: "CC(CCc1ccc(OCCCOc2ccc(CC(=O)N(C)CCc3ccccc3)cc2)cc1)C(=O)O (centres undefined)"
  SYSTEM UNDER TEST: "Mus musculus"
  UNITS TEXT: "%"
  OBSERVED RESULT: 60

Now consider the entry below.
Q: Field: Activity (Mus musculus). Entry: CN(CCc1ccccc1)C(=O)Cc1ccc(OCCCOc2ccc(CCC(=O)O)cc2)cc1
Ans: 100
